Origin of the recorded values: ChEMBL document CHEMBL1208761

What log10 of IC50 was measured for each of the following?
test target: UniProtKB Q99835
assay procedure: Inhibition of Smoothened transfected in HEK293 cells by transient transfection cell-based assay
Remember, log10 of IC50, in nM.

Below, 5 compounds whose answers are already recorded.
{"columns": ["compound", "test target", "log10 of IC50"],
 "data": [
  ["COc1ccccc1N1CCN(Cc2c(C)nn(-c3ccccc3)c2C)CC1", "UniProtKB Q99835", 3.27],
  ["Cc1nn(-c2ccccc2)c(C)c1/C=N/N1CCN(Cc2ccccc2)CC1", "UniProtKB Q99835", 0.68],
  ["COc1cccc(F)c1OC1CN(Cc2cnn(-c3ccccc3)c2C)C1", "UniProtKB Q99835", 0.92],
  ["Cc1c(CN2CCN(c3cccc(C(F)(F)F)c3)CC2)cnn1-c1ccccc1", "UniProtKB Q99835", 2.52],
  ["COc1ccc(N2CCN(Cc3c(C)nn(-c4ccc(F)cc4)c3C)CC2)cc1", "UniProtKB Q99835", 3.23]
]}

Would you mind listing log10 of IC50 for each of the following compounds?
1. COc1ccc(OC)c(C2CCN(Cc3cnn(-c4ccccc4F)c3C)C2)c1 (stereo not drawn)
2. Cc1nn(-c2ccccc2)c(Cl)c1CN1CCN(c2ccc(F)cc2)CC1
3. COc1ccc(N2CCN(Cc3cnn(-c4ccccc4)c3C)CC2)cc1
4. COc1cccc(N2CCN(Cc3c(C)nn(-c4ccc(F)cc4)c3C)CC2)c1
5. Cc1c(CN2CCN(c3ccccc3)CC2)cnn1-c1ccccc1
6. COc1cccc(N2CCN(Cc3cnn(-c4ccc(F)cc4)c3C)CC2)c1

1: 1.61; 2: 3.27; 3: 2.02; 4: 2.92; 5: 1.89; 6: 1.81

###

test target: Protein smoothened (Homo sapiens, UniProt Q99835)
Sequence (Q99835 whole entry): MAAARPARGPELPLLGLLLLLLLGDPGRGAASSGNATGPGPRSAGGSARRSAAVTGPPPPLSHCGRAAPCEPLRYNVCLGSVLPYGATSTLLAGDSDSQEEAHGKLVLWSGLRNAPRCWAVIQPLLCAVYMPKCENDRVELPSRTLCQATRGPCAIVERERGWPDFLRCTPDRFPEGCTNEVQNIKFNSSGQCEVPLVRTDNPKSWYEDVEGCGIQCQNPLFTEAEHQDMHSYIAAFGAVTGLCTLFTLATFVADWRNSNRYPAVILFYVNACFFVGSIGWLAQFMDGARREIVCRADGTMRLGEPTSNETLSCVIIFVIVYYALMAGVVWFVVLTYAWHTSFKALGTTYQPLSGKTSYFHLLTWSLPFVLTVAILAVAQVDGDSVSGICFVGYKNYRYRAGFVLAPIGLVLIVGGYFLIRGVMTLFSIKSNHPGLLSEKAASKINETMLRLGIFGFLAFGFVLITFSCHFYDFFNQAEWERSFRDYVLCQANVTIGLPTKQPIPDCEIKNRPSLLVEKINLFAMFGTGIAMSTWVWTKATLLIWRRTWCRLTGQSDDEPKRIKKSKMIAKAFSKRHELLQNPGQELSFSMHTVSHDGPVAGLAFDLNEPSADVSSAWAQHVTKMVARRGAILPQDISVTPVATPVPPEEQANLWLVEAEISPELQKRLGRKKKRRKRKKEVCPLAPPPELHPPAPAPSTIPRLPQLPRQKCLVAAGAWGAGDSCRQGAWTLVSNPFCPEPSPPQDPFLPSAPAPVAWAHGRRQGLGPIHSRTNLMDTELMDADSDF
assay procedure: Inhibition of Smoothened transfected in HEK293 cells by binding assay
Assay type: cell-based
Mark Criterion met for IC50 under 100 nM, Criterion not met if at or over.

Known results for molecules:
{"columns": ["molecule", "class assignment"],
 "data": [
  ["COc1ccc(N2CCN(Cc3c(C)nn(-c4ccc(F)cc4)c3C)CC2)cc1", "Criterion not met"],
  ["COc1ccc(OC)c(C2CCN(Cc3cnn(-c4ccccc4F)c3C)C2)c1 (stereo not drawn)", "Criterion not met"],
  ["Cc1nn(-c2ccccc2)c(Cl)c1CN1CCN(c2ccc(F)cc2)CC1", "Criterion met"],
  ["Cc1nn(-c2ccccc2)c(C)c1/C=N/N1CCN(Cc2ccccc2)CC1", "Criterion met"],
  ["COc1ccc(N2CCN(Cc3cn(-c4ccccc4)nc3C)CC2)cc1", "Criterion not met"]
]}

Please let me know if Cc1c(CN2CCN(c3ccccc3)CC2)cnn1-c1ccccc1 shows IC50 below 100 nM.
Criterion met

Then this molecule: Cc1c(CN2CCN(c3cccc(C(F)(F)F)c3)CC2)cnn1-c1ccccc1
Criterion not met

###

test target: Voltage-gated inwardly rectifying potassium channel KCNH2 (Homo sapiens)
Sequence (Q12809 whole entry): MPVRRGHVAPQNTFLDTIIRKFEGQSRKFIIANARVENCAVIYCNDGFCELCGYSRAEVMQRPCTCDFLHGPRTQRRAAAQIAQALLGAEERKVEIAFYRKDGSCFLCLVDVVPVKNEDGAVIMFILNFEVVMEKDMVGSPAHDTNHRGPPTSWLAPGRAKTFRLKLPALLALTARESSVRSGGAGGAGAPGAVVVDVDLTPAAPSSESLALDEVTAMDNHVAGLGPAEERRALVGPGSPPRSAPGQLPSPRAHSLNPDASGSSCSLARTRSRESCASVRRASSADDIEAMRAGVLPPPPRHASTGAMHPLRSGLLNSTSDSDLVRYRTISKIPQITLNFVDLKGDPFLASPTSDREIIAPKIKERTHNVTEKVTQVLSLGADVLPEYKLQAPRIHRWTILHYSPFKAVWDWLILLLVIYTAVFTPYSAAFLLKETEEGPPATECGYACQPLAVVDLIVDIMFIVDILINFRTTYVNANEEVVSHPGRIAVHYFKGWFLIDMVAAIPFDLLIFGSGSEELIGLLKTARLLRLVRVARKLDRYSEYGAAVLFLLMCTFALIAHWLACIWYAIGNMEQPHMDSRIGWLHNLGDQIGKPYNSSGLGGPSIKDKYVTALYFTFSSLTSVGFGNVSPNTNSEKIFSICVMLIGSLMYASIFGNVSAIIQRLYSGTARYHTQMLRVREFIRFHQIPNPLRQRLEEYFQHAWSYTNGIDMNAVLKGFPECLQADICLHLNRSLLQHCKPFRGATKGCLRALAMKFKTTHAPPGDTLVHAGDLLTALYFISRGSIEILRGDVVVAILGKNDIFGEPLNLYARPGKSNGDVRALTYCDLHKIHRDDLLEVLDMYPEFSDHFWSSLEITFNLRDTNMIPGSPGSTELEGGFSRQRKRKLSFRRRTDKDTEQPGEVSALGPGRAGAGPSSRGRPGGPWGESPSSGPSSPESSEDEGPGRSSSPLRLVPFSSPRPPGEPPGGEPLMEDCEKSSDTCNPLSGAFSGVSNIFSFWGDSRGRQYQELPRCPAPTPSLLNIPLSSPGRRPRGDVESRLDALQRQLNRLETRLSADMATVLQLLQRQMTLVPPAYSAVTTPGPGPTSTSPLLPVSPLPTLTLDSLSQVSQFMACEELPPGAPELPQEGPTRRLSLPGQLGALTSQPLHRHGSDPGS
measurement name: Ki

Could you share which Ki value was measured for COc1cccc(F)c1OC1CN(Cc2cnn(-c3ccccc3)c2C)C1 ?
> 1000 nM

###

test target: UniProt P14416
Sequence (P14416 whole entry): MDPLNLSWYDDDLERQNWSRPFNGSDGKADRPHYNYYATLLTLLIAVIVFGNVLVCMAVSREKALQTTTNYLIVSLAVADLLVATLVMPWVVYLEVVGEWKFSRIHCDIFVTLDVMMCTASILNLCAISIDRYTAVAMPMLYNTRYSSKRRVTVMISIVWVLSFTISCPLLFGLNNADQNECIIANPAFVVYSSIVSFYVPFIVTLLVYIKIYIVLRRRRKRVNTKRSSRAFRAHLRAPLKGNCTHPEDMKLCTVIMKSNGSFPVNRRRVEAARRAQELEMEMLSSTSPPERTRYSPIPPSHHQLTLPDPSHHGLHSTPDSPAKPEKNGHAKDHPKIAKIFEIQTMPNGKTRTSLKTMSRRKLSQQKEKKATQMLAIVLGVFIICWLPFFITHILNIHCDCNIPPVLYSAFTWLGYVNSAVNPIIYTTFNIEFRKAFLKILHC
assay procedure: Binding affinity to dopamine D2 receptor
measurement name: Ki

Could you share which Ki value was measured for COc1ccc(OC)c(C2CCN(Cc3cnn(-c4ccccc4F)c3C)C2)c1 (stereo unspecified) ?
> 1000 nM
